# credit: patent US20220177587A1

Biological target: CD28 (Homo sapiens, UniProt P10747)
Assay: Flow binding to Jurkat/IL2 reporter cells (CD28)
Set-up: host or cells: Jurkat cells expressing an IL-2-luciferase reporter
Settings: Table E4; MFI ratio to WT CD80 ECD-Fc (R&D) at 33.3 nM
Reported endpoint: CD28 Fold change to WT CD80

Incoming: // returns reported CD28 Fold change to WT CD80 for input R29H/E35D/M43V/M47I/I49V (protein, UniProt P33681 35-288, looked up, variant R29H E35D M43V M47I I49V) T-lymphocyte activation …: VIHVTKEVKEVATLSCGHNVSVEELAQTHIYWQKDKKMVLTMVSGDINVWPEYKNRTIFDITNNLSIVILALRPSDEGTYECVVLKYEKDAFKREHLAEVTLSVKADFPTPSISDFEIPTSNIRRIICSTSGGFPEPHLSWLENGEELNAINTTVSQDPETELYAVSSKLDFNMTTNHSFMCLIKYGHLRVNQTFNWNTTKQEHFPDNLLPSWAITLISVNGIFVICCLTYCFAPRCRERRRNERLRRESVRPV
Outgoing: 0.02
